# Tested on: human tumour cells, lung (large cell)
# METHOD: colony formation of human tumour cells: lung (large cell)
# Format: cell-based
READOUT_LABEL: IC50

Consider the molecule CN(C)CCCn1c2ccc(O)cc2c2c3c(c4c5cc(O)ccc5[nH]c4c21)C(=O)NC3=O and give its measured IC50. < 100 nM

---

# TARGET_OR_SYSTEM: protein kinase C
# METHOD: inhibition of protein kinase C, enzyme test
# Assay type: biochemical
# RECORDED_CONDITIONS: read-out: inhibition of the protein kinases, C-kinase IC50
READOUT_LABEL: pIC50
Give bare numbers, as −log10 of the molar value.

Record excerpt, results attached:
>  <MOLECULE>
Cn1c2ccc(O)cc2c2c3c(c4c5ccccc5n(CCC#N)c4c21)C(=O)NC3=O

>  <READOUT_LABEL>
pIC50

>  <NUMBER>
7.51

$$$$
>  <MOLECULE>
Cn1c2ccccc2c2c3c(c4c5cc(O)ccc5n(CCC#N)c4c21)C(=O)NC3=O

>  <READOUT_LABEL>
pIC50

>  <NUMBER>
7.62

$$$$
>  <MOLECULE>
O=C1NC(=O)c2c1c1c3cc(O)ccc3[nH]c1c1[nH]c3ccc(O)cc3c21

>  <READOUT_LABEL>
pIC50

>  <NUMBER>
8.15

$$$$
>  <MOLECULE>
O=C1NC(=O)c2c1c1c3ccccc3[nH]c1c1c2c2ccccc2n1CC(O)CO (stereo not shown)

>  <READOUT_LABEL>
pIC50

>  <NUMBER>
7.23

$$$$
>  <MOLECULE>
COc1ccc2c(c1)c1c3c(c4c5cc(OC)c(OC)cc5n(CCC#N)c4c1n2C)C(=O)NC3=O

>  <READOUT_LABEL>
pIC50

>  <NUMBER>
7.62

$$$$
>  <MOLECULE>
COc1ccc2c(c1)c1c3c(c4c5ccccc5n(C)c4c1n2CC(O)CN(C)C)C(=O)NC3=O (racemic) [Example 10b]

>  <READOUT_LABEL>
pIC50

>  <NUMBER>
8.40

$$$$
>  <MOLECULE>
CC(C)NCCCn1c2ccccc2c2c3c(c4c5ccccc5n(C)c4c21)C(=O)NC3=O

>  <READOUT_LABEL>
pIC50

>  <NUMBER>
7.28

$$$$
>  <MOLECULE>
Cn1c2ccc(O)cc2c2c3c(c4c5cc(O)ccc5n(CCC#N)c4c21)C(=O)NC3=O

>  <READOUT_LABEL>
pIC50

>  <NUMBER>
8.38

$$$$
>  <MOLECULE>
CC(C)N(CCCn1c2ccccc2c2c3c(c4c5ccccc5[nH]c4c21)C(=O)NC3=O)C(C)C

>  <READOUT_LABEL>
pIC50

>  <NUMBER>
7.38

$$$$
>  <MOLECULE>
COc1ccc2c(c1)c1c3c(c4c5ccccc5n(CCCC#N)c4c1n2C)C(=O)NC3=O

>  <READOUT_LABEL>
pIC50

>  <NUMBER>
7.62

$$$$

List pIC50 for every entry below, keeping the order given.
1. COc1ccc2[nH]c3c(c4c(c5c6ccccc6n(C)c35)C(=O)NC4=O)c2c1
2. COc1cc2c3c4c(c5c6ccccc6n(C)c5c3n(CCCN(C)C)c2cc1OC)C(=O)NC4=O
3. COc1ccc2c(c1)c1c3c(c4c5cc(Cl)ccc5n(CCC#N)c4c1n2C)C(=O)NC3=O
4. COc1ccc2[nH]c3c4[nH]c5ccccc5c4c4c(c3c2c1)C(=O)NC4=O [Example 11b]

[7.60, 7.59, 7.70, 6.55]

Query (molecule): O=C1NC(=O)c2c1c1c3cc(Br)ccc3[nH]c1c1[nH]c3ccc(Br)cc3c21 [Example 11g] ; field requested: pIC50 5.34

---

# TARGET_OR_SYSTEM: protein kinase C
# METHOD: inhibition of protein kinase C, enzyme test
# RECORDED_CONDITIONS: read-out: inhibition of the protein kinases, C-kinase IC50
READOUT_LABEL: IC50 (nM)
Numbers only, in nM.

>  <MOLECULE>
Cn1c2ccccc2c2c3c(c4c5ccccc5n(CCCN=[N+]=[N-])c4c21)C(=O)NC3=O

>  <READOUT_UNITS>
nM

>  <IC50>
50

$$$$

Quick batch: IC50 for everything below.
1. Cn1c2ccccc2c2c3c(c4c5ccccc5n(CCC#N)c4c21)C(=O)NC3=O
2. Cn1c2ccccc2c2c3c(c4c5ccccc5n(CC#N)c4c21)C(=O)NC3=O
3. COc1ccc2c(c1)c1c3c(c4c5cc(Cl)ccc5n(CCCN)c4c1n2C)C(=O)NC3=O
4. COc1ccc2c3c4c(c5c6ccccc6n(C)c5c3n(CCC#N)c2c1)C(=O)NC4=O
5. CN(C)CCCn1c2ccc(O)cc2c2c3c(c4c5ccccc5n(C)c4c21)C(=O)NC3=O
6. CN(C)CCCn1c2ccccc2c2c3c(c4c5ccccc5n(C)c4c21)C(=O)NC3=O

1: 38; 2: 14; 3: 34; 4: 4700; 5: 40; 6: 500

Provide IC50 values for the following items, in order.
1. COc1ccc2[nH]c3c(c4c(c5c6cc(OC)ccc6n(CCCN(C)C)c35)C(=O)NC4=O)c2c1
2. COc1cc2c3c4c(c5c6ccccc6n(C)c5c3n(CCC#N)c2cc1OC)C(=O)NC4=O
3. COc1ccc2c(c1)c1c3c(c4c5ccccc5n(C)c4c1n2CCCN(C)C)C(=O)NC3=O
4. Cn1c2ccccc2c2c3c(c4c5ccccc5n(CCCC#N)c4c21)C(=O)NC3=O
5. CCN(CC)CC(O)Cn1c2ccccc2c2c3c(c4c5ccccc5n(C)c4c21)C(=O)NC3=O (racemic) [Example 10a]
6. O=C1NC(=O)c2c1c1c3ccccc3[nH]c1c1[nH]c3cc(Cl)ccc3c21 [Example 11c]

1. 380
2. 6.7
3. 440
4. 36
5. 120
6. 4000

Requested field: IC50. Item: COc1ccc2c(c1)c1c3c(c4c5ccccc5n(CCC#N)c4c1n2C)C(=O)NC3=O 35

---

Assignment: determine reported IC50 for the given compounds.
# TARGET_OR_SYSTEM: MLC kinase (myosin light-chain kinase) (Gallus gallus, UniProt P11799)
# Construct: MLC kinase was purified from chicken stomach; from tissue; host or cells: chicken stomach (gizzard smooth muscle)
# Sequence (P11799 935-1906): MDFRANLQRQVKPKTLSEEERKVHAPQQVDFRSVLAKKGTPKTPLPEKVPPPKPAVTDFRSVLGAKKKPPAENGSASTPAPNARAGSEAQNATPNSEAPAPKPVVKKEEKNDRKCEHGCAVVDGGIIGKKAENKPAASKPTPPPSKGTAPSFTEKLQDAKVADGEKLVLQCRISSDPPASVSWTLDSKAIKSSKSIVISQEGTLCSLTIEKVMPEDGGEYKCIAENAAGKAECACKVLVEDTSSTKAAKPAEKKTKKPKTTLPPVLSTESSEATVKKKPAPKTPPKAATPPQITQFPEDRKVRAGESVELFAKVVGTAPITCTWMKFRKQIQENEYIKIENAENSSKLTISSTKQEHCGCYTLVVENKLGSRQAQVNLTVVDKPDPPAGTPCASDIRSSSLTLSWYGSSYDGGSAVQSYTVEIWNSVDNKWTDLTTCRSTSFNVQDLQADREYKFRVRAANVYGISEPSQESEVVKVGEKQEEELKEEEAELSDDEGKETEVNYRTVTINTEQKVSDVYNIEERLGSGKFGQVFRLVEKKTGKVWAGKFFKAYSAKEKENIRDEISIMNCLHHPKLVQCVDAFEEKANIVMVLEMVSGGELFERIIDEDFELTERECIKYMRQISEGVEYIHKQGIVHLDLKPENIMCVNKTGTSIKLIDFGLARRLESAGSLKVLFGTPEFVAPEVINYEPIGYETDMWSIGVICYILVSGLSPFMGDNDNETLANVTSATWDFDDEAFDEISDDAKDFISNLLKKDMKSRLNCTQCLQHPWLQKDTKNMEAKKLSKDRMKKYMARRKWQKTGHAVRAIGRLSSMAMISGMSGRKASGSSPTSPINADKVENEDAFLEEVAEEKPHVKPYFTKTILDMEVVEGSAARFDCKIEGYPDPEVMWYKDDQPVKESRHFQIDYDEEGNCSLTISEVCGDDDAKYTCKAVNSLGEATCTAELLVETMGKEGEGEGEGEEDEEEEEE
# METHOD: inhibition of MLC kinase, in vitro enzyme test (32P phosphate incorporation)
# Format: biochemical, chicken (stomach)
# RECORDED_CONDITIONS: 1 nM MLC kinase, 250 μM ATP, pH 7.2, 20 minutes at 30° C.; read-out: inhibition of the protein kinases, MLC-kinase IC50
Numbers only, in nM.

Return reported IC50 values for all items listed beneath this line.
1. CCN(CC)CC(O)Cn1c2ccccc2c2c3c(c4c5ccccc5n(C)c4c21)C(=O)NC3=O (racemic) [Example 10a]
2. Cn1c2ccccc2c2c3c(c4c5ccccc5n(CCCN=[N+]=[N-])c4c21)C(=O)NC3=O

370
130

---

# TARGET_OR_SYSTEM: MLC kinase (myosin light-chain kinase) (Gallus gallus)
# Construct: MLC kinase was purified from chicken stomach; from tissue; host or cells: chicken stomach (gizzard smooth muscle)
# METHOD: inhibition of MLC kinase, in vitro enzyme test (32P phosphate incorporation)
# Type: biochemical, chicken (stomach)
# RECORDED_CONDITIONS: 1 nM MLC kinase, 250 μM ATP, pH 7.2, 20 minutes at 30° C.; read-out: inhibition of the protein kinases, MLC-kinase IC50
Provide the reported log10 of IC50 of each item.
Values are log10 of IC50 in nM.

>  <COMPOUND>
COc1ccc2c(c1)c1c3c(c4c5ccccc5n(C)c4c1n2CCCN(C)C)C(=O)NC3=O

>  <log10 of IC50>
1.79

$$$$

Record log10 of IC50 per entry; entries follow.
1. O=C1NC(=O)c2c1c1c3ccccc3[nH]c1c1c2c2ccccc2n1CC(O)CO (centres unmarked)
2. CN(C)CCCn1c2ccccc2c2c3c(c4c5ccccc5[nH]c4c21)C(=O)NC3=O
3. COc1ccc2[nH]c3c4[nH]c5ccc(OC)cc5c4c4c(c3c2c1)C(=O)NC4=O [Example 11d]
4. Cn1c2ccccc2c2c3c(c4c5ccccc5n(CCC[N+](C)(C)C)c4c21)C(=O)NC3=O
5. O=C1NC(=O)c2c1c1c3cc(Br)ccc3[nH]c1c1[nH]c3ccc(Br)cc3c21 [Example 11g]
6. CN(C)CCCn1c2ccc(O)cc2c2c3c(c4c5ccccc5n(C)c4c21)C(=O)NC3=O
7. CC(CC#N)n1c2ccccc2c2c3c(c4c5ccccc5n(C)c4c21)C(=O)NC3=O (centres unmarked)
8. COc1ccc2c(c1)c1c3c(c4c5cc(Cl)ccc5n(CCCN)c4c1n2C)C(=O)NC3=O

1. 0.72
2. 1.72
3. 1.32
4. 1.88
5. 2.57
6. 0.70
7. 1.79
8. 0.18

// data source = patent US5945440A
